Cited source for all entries: patent US8053574B2

assayed system: PI3K γ (Homo sapiens, UniProt P48736)
Sequence (P48736 whole entry): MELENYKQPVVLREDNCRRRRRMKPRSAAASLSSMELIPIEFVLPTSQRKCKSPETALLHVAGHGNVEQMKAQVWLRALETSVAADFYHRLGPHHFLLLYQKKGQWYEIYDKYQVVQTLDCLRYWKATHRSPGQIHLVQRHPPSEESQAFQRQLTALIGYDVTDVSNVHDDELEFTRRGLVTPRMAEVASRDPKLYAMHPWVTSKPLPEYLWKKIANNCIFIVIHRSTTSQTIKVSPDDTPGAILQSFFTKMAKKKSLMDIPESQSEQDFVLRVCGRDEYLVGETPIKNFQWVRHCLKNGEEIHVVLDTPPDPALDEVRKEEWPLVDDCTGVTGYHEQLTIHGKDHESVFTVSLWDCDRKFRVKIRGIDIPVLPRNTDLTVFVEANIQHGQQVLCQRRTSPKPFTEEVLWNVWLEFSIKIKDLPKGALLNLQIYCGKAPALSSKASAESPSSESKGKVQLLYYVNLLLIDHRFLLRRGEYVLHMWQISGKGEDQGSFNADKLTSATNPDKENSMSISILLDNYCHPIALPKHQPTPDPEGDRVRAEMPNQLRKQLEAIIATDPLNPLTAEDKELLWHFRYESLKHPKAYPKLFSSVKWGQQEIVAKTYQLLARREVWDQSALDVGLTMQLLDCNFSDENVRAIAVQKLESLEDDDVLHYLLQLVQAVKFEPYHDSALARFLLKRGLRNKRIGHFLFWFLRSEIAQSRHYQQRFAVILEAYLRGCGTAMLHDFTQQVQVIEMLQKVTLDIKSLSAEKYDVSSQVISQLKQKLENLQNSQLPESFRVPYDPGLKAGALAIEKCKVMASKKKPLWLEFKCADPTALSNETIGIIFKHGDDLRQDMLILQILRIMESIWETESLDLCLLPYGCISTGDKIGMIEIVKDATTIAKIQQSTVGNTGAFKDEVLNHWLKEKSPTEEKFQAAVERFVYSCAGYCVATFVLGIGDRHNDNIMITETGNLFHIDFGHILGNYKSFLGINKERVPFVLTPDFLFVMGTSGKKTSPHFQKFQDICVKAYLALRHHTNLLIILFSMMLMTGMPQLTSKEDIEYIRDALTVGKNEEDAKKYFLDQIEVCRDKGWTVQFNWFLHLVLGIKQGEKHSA
method notes: PI3 kinase phosphorylation assay (Biological Method 1), Ki γ
Type: biochemical
experimental parameters: Table 4

{"smiles data": "CCn1nnc(CCNC(=O)Nc2cn3cc(-c4cncc(C#N)c4)ncc3n2)n1", "measure unit": "µM", "Ki": 0.098}
{"smiles data": "CCn1nnc(CCNC(=O)Nc2nc3ccc(-c4cccnc4)cn3n2)n1", "measure unit": "µM", "Ki": 0.099}
{"smiles data": "CCn1nnc(CCNC(=O)Nc2nc3cc(-c4cncc(C(F)(F)F)c4)ccn3n2)n1", "measure unit": "µM", "Ki": 0.64}
{"smiles data": "CCn1nnc(CCNC(=O)Nc2cn3nc(-c4cncc(C(F)(F)F)c4)ccc3n2)n1", "measure unit": "µM", "Ki": 0.012}
{"smiles data": "CCn1nnc(CCNC(=O)Nc2cn3cc(-c4cncc(C(F)(F)F)c4)cnc3n2)n1", "measure unit": "µM", "Ki": 0.884}
{"smiles data": "CCn1nnc(CCNC(=O)Nc2cn3nc(-c4cncc(F)c4)ccc3n2)n1", "measure unit": "µM", "Ki": 0.107}
{"smiles data": "CCn1nnc(CCNC(=O)Nc2cn3cc(-c4cccnc4)ncc3n2)n1", "measure unit": "µM", "Ki": 0.082}
{"smiles data": "CCn1nnc(CCNC(=O)Nc2nc3cc(-c4cccnc4)ccn3n2)n1", "measure unit": "µM", "Ki": 0.502}
{"smiles data": "CCn1nnc(CCNC(=O)Nc2cn3nc(-c4cnccc4C)ccc3n2)n1", "measure unit": "µM", "Ki": 0.248}
{"smiles data": "CCn1nnc(CCNC(=O)Nc2cn3nc(-c4cncc(C#N)c4)ccc3n2)n1", "measure unit": "µM", "Ki": 0.031}
{"smiles data": "CCn1nnc(CCNC(=O)Nc2nc3ccc(-c4cncc(C#N)c4)cn3n2)n1", "measure unit": "µM", "Ki": 0.418}
{"smiles data": "CCn1nnc(CCNC(=O)Nc2nc3ccc(-c4cncc(C(F)(F)F)c4)cn3n2)n1", "measure unit": "µM", "Ki": 0.376}
{"smiles data": "CCn1nnc(CCNC(=O)Nc2cn3cc(-c4cncc(C(F)(F)F)c4)ncc3n2)n1", "measure unit": "µM", "Ki": 0.027}
{"smiles data": "CCn1nnc(CCNC(=O)Nc2cn3nc(-c4cccnc4)ccc3n2)n1", "measure unit": "µM", "Ki": 0.031}
